System: U251 human glioblastoma cell line
ASSAY METHOD TEXT: in vitro FM-HCR assay of MGMT activity (mPlum O^6MeG reporter plasmid)
Type: cell-based
EXPERIMENTAL PARAMETERS: MGMT activity (a.u.) in O^6BG divided by DMSO x 100; higher values indicate resistance
OUTCOME MEASURE: Relative MGMT activity (%)
Give bare numbers, in %.

Examples with their reported Relative MGMT activity (%) follow.
{"MOLECULE": "L33R: MGMT polypeptide with mutation L33R (protein) MDKDCEMKRTTLDSPLGKLELSGCEQGLHEIKRLGKGTSAADAVEVPAPAAVLGGPEPLMQCTAWLNAYFHQPEAIEEFPVPALHHPVFQQESFTRQVLWKLLKVVKFGEVISYQQLAALAGNPKAARAVGGAMRGNPVPILIPCHRVVCSSGAVGNYSGGLAVKEWLLAHEGHRLGKPGLGGSSGLAGAWLKGAGATSGSPPAGRN", "VALUE UNIT": "%", "Relative MGMT activity (%)": 25.7}
{"MOLECULE": "L33K: MGMT polypeptide with mutation L33K (protein) MDKDCEMKRTTLDSPLGKLELSGCEQGLHEIKKLGKGTSAADAVEVPAPAAVLGGPEPLMQCTAWLNAYFHQPEAIEEFPVPALHHPVFQQESFTRQVLWKLLKVVKFGEVISYQQLAALAGNPKAARAVGGAMRGNPVPILIPCHRVVCSSGAVGNYSGGLAVKEWLLAHEGHRLGKPGLGGSSGLAGAWLKGAGATSGSPPAGRN", "VALUE UNIT": "%", "Relative MGMT activity (%)": 25.7}

# query: Relative MGMT activity (%) of entry Y158M: MGMT polypeptide with mutation Y158M (protein) MDKDCEMKRTTLDSPLGKLELSGCEQGLHEIKLLGKGTSAADAVEVPAPAAVLGGPEPLMQCTAWLNAYFHQPEAIEEFPVPALHHPVFQQESFTRQVLWKLLKVVKFGEVISYQQLAALAGNPKAARAVGGAMRGNPVPILIPCHRVVCSSGAVGNMSGGLAVKEWLLAHEGHRLGKPGLGGSSGLAGAWLKGAGATSGSPPAGRN
79.4
